Test name: animal toxicity tests (LD50)
Experimental parameters: in vivo
Readout kind: LD50

In: Give the measured LD50 of C[C@]12CCC(=O)C=C1C(=O)C[C@@H]1[C@@H]2CC[C@]2(C)C(=O)CC[C@@]12O [6-OA, 14α-Hydroxy-4-androstene-3,6,17-trione] .
Out: > 2000 mg/kg
